Data provenance is patent US20250074871A1.

Experiment: in vitro hepatocyte clearance, mouse
Type: in vitro ADME
Details: Mouse hepatocytes; read-out: Scale-up Clint
Measurement type: CLint scaled

CSc1ccccc1CNCCc1ccc(C#N)cc1O    > 435 L/h/kg

Reported CLint scaled, compound COc1cc(C(F)(F)F)ccc1CCNCc1ccccc1O : ____
< 435 L/h/kg

* * *

Each record here notes measured 5-HT2C BRET Eff %.
Target: 5-HT2C receptor (Homo sapiens)
Construct: expressed in transfected cells; host or cells: HEK293T
Assay: cell-based
Format: cell-based
Conditions: Table 2; normalized to % 5-HT stimulation

COc1cc(C#N)ccc1CCNCc1ccccc1O [Cpd #113]    102%

Reported 5-HT2C BRET Eff %, molecule N#Cc1ccc(CCNCc2ccccc2O)c(OC(F)(F)F)c1 [Cpd #115] : ____
104%

Reported 5-HT2C BRET Eff %, molecule CSc1ccc(CCNCc2ccccc2O)c(O)c1 [Cpd #122] : ____
108%

Reported 5-HT2C BRET Eff %, molecule COc1cc(C#N)c(F)cc1CCNCc1ccccc1O [Cpd #4] : ____
115%

Reported 5-HT2C BRET Eff %, molecule COc1cc(Oc2ccccc2)ccc1CCNCc1ccccc1O [Cpd #127] : ____
104%

Reported 5-HT2C BRET Eff %, molecule Oc1cc(C(F)(F)F)ccc1CCNCc1ccccc1O [Cpd #116] : ____
100%

Reported 5-HT2C BRET Eff %, molecule N#Cc1cc(O)c(CCNCc2ccccc2O)cc1F [Cpd #129] : ____
105%

Reported 5-HT2C BRET Eff %, molecule COc1cc(C#N)ccc1CCNCc1c(Cl)cccc1Cl [Cpd #58] : ____
85%

Reported 5-HT2C BRET Eff %, molecule COc1cc(C#N)ccc1CCN(C)Cc1ccccc1Cl [Cpd #88] : ____
86%

Reported 5-HT2C BRET Eff %, molecule Oc1ccccc1CNCC(O)c1ccc(C(F)(F)F)cc1OCc1ccccc1 (stereo not shown) [Reference Compound 1a, reference compound] : ____
105%

* * *

Target: 5-HT2A receptor (Homo sapiens, UniProt P28223)
Construct: expressed in transfected cells; host or cells: HEK293T
Sequence (P28223 whole entry): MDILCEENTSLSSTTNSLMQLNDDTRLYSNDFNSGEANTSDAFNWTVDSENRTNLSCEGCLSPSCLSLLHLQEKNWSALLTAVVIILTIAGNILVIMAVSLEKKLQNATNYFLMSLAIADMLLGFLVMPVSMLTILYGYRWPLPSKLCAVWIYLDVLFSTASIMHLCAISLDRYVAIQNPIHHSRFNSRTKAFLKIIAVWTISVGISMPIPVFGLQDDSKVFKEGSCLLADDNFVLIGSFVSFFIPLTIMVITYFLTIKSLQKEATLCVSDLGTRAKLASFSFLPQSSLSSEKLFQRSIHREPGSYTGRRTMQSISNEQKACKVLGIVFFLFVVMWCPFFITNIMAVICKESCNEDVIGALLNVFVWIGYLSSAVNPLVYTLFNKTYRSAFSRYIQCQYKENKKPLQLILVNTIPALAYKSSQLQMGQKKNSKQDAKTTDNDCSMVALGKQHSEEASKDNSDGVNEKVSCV
Assay: 5-HT2A Gq dissociation BRET functional assay
Assay type: cell-based
Conditions: 5-HT2A BRET EC50 (nM), Table 2; at least three replicate trials
Measurement type: EC50 (nM)
Give just the number in nM; leave the unit off.

CSc1ccc(CCNCc2ccccc2SC)c(O)c1    3.6

Reported EC50, molecule COc1cc(C#N)ccc1CCNCc1ccccc1Cl : ____
102

Reported EC50, molecule COc1ccccc1CNCCc1ccc(F)cc1O : ____
18

* * *

Each record here notes measured 5-HT2C BRET Eff %.
Target: 5-HT2C receptor (Homo sapiens, UniProt P28335)
Construct: expressed in transfected cells; host or cells: HEK293T
Sequence (P28335 33-458): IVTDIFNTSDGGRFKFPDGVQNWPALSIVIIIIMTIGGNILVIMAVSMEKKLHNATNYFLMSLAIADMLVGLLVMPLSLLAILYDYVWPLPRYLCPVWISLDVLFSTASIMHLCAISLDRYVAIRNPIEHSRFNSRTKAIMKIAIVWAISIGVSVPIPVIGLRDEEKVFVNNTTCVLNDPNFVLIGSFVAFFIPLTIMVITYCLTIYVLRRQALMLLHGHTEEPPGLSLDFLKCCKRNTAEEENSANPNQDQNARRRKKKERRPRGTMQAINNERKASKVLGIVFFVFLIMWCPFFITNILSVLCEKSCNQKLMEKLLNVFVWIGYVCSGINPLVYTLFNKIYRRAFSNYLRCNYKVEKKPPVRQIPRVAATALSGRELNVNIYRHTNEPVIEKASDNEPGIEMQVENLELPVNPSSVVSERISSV
Assay: cell-based
Format: cell-based
Conditions: Table 2; normalized to % 5-HT stimulation
Give just the number in %; leave the unit off.

# annotated cases, reported 5-HT2C BRET Eff % shown
CSc1ccccc1CCNCCc1ccc(C#N)cc1O    87
COc1cc(C#N)ccc1CCNC1COc2ccccc21 (stereo not drawn)    125

Shifting focus to the compound that follows.
Reported 5-HT2C BRET Eff %, compound COc1cc(C#N)ccc1CCNCc1ccc(Cl)cc1 : ____
74
